Test: Area under the curve determinations of plasma levels in rats (rrAUC)
Type: in vivo
Conditions: rapid rat AUC of the drug (parent) in plasma; oral 10 mg/kg, fasted rats, blood 0.5-6 h post-dosing
measured_quantity: PK (rrAUC) parent (µM·h)
Numbers only; they are read as µM·h.

{"compound_structure": "CCOC(=O)CN1C(=O)N[C@@](CN2Cc3ccc(OC)cc3C2=O)(c2cc3cnccc3o2)C1=O", "PK (rrAUC) parent / µM·h": 0}
{"compound_structure": "CCCCCCCCOCN1C(=O)N[C@@](CN2Cc3ccc(OC)cc3C2=O)(c2cc3cnccc3o2)C1=O", "PK (rrAUC) parent / µM·h": 0.571}
{"compound_structure": "COc1ccc2c(c1)C(=O)N(C[C@]1(c3cc4cnccc4o3)C(=O)N(COC(=O)c3ccccc3OC(C)=O)C(=O)N1C(C)=O)C2", "PK (rrAUC) parent / µM·h": 0}

Prompt: If you can, please state the reported PK (rrAUC) parent value of COc1ccc2c(c1F)C(=O)N(C[C@@]1(c3cc4nc(N)ccc4o3)NC(=O)N(COC(=O)C(C)(C)C)C1=O)C2 .
Completion: 0.351

====

Catalogue of molecules with associated PK (rrAUC) parent
Assay: Area under the curve determinations of plasma levels in rats (rrAUC)
Assay type: in vivo
Conditions: rapid rat AUC of the drug (parent) in plasma; oral 10 mg/kg, fasted rats, blood 0.5-6 h post-dosing
Numbers only; they are read as µM·h.

Sample records with PK (rrAUC) parent:
{"molecule": "COc1ccc2c(c1)C(=O)N(C[C@@]1(c3cc4cnccc4o3)NC(=O)N(COC(=O)[C@H](N)C(C)C)C1=O)C2", "measured_quantity": "PK (rrAUC) parent", "display_unit": "µM·h", "test_value": 4.316}
{"molecule": "COc1ccc2c(c1F)C(=O)N(C[C@@]1(C#Cc3ccc4c(=O)[nH][nH]c4c3)NC(=O)N(COC(=O)C(C)(C)C)C1=O)C2", "measured_quantity": "PK (rrAUC) parent", "display_unit": "µM·h", "test_value": 0}
{"molecule": "COc1ccc2c(c1)C(=O)N(C[C@@]1(c3cc4cnccc4o3)NC(=O)N(COC(=O)c3ccccc3)C1=O)C2", "measured_quantity": "PK (rrAUC) parent", "display_unit": "µM·h", "test_value": 1.861}
{"molecule": "COc1ccc2c(c1)C(=O)N(C[C@]1(c3cc4cnccc4o3)C(=O)N(COC(=O)OCC3COCO3)C(=O)N1C(=O)OCC1COCO1)C2 (stereo partly drawn)", "measured_quantity": "PK (rrAUC) parent", "display_unit": "µM·h", "test_value": 0.056}
{"molecule": "COc1ccc2c(c1F)C(=O)N(C[C@@]1(c3cc4nc(N5C(=O)CCC5C)ccc4o3)NC(=O)N(COC(=O)C(C)(C)C)C1=O)C2 (stereo partly drawn)", "measured_quantity": "PK (rrAUC) parent", "display_unit": "µM·h", "test_value": 4.557}

Next, consider the following molecule.
Prompt: If you can, please state the reported PK (rrAUC) parent value of COc1ccc2c(c1)C(=O)N(C[C@@]1(c3cc4cnccc4o3)NC(=O)N(C(=O)OC3COCOC3)C1=O)C2 .
Completion: 0

====

Test: Area under the curve determinations of plasma levels in rats (rrAUC)
Format: in vivo
Conditions: rapid rat AUC of the drug (parent) in plasma; oral 10 mg/kg, fasted rats, blood 0.5-6 h post-dosing
Values of PK (rrAUC) parent strictly less than 0.1 µM·h map to Satisfied, and values of at least 0.1 µM·h map to Not satisfied.

{"compound_structure": "COc1ccc2c(c1F)C(=O)N(C[C@@]1(c3cc4nc(-c5cn[nH]c5)ccc4o3)NC(=O)N(COC(=O)C(C)(C)C)C1=O)C2", "class_assignment": "Not satisfied"}

Prompt: # TODO verify PK (rrAUC) parent < 0.1 µM·h strictly for this compound: COc1ccc2c(c1F)C(=O)N(C[C@@]1(c3cc4cc(-c5cc(=O)[nH]c(N)n5)ccc4o3)NC(=O)N(COC(=O)C(C)(C)C)C1=O)C2
Completion: Satisfied

Prompt: Then COc1ccc2c(c1)C(=O)N(C[C@@]1(c3cc4nc(N5C[C@H](O)CC5=O)ccc4o3)NC(=O)N(COC(=O)C(C)(C)C)C1=O)C2 ?
Completion: Not satisfied

Prompt: Then COc1ccc2c(c1)C(=O)N(C[C@@]1(c3cc4ncccc4o3)NC(=O)N(COC(=O)C(C)(C)C)C1=O)C2 ?
Completion: Not satisfied

Prompt: Then COc1ccc2c(c1)C(=O)N(C[C@@]1(c3cc4nc(N5CCCNC5=O)ccc4o3)NC(=O)N(COC(=O)C(C)(C)C)C1=O)C2 ?
Completion: Not satisfied

Prompt: Then COc1ccc2c(c1F)C(=O)N(C[C@@]1(c3cc4nc(N5CCC5=O)ccc4o3)NC(=O)N(COC(=O)C(C)(C)C)C1=O)C2 ?
Completion: Not satisfied

Prompt: Then COc1ccc2c(c1)C(=O)N(C[C@@]1(c3cc4nc(N5CC[C@@H](O)C5)ccc4o3)NC(=O)N(COC(=O)C(C)(C)C)C1=O)C2 ?
Completion: Not satisfied

Prompt: Then COc1ccc2c(c1F)C(=O)N(C[C@@]1(c3cc4ncc(C(N)=O)cc4o3)NC(=O)N(COC(=O)C(C)(C)C)C1=O)C2 ?
Completion: Satisfied

Prompt: Then COCCOCCOCCN1C(=O)N[C@@](CN2Cc3ccc(OC)cc3C2=O)(c2cc3cnccc3o2)C1=O ?
Completion: Satisfied

====

Test: Area under the curve determinations of plasma levels in rats (rrAUC)
Assay type: in vivo
Details: rapid rat AUC of the drug (parent) in plasma; oral 10 mg/kg, fasted rats, blood 0.5-6 h post-dosing
Catalogue of molecules with associated PK (rrAUC) parent
Numbers only; they are read as µM·h.

Sample records with PK (rrAUC) parent:
{"compound_structure": "CCN1CCN(c2ccc3oc([C@]4(CN5Cc6ccc(OC)c(F)c6C5=O)NC(=O)N(COC(=O)C(C)(C)C)C4=O)cc3n2)CC1", "PK (rrAUC) parent, µM·h": 19.953}
{"compound_structure": "CCOCN1C(=O)N[C@@](CN2Cc3ccc(OC)cc3C2=O)(c2cc3cnccc3o2)C1=O", "PK (rrAUC) parent, µM·h": 5.183}
{"compound_structure": "COc1ccc2c(c1)C(=O)N(C[C@@]1(c3cc4cnccc4o3)NC(=O)N(COC(=O)OC(C)(C)C)C1=O)C2", "PK (rrAUC) parent, µM·h": 0}
{"compound_structure": "COCN1C(=O)N[C@@](CN2Cc3ccc(OC)c(F)c3C2=O)(c2cc3cc4c(c(F)c3o2)C(=O)NC4)C1=O", "PK (rrAUC) parent, µM·h": 0}
{"compound_structure": "COc1ccc2c(c1)C(=O)N(C[C@@]1(c3cc4cnccc4o3)NC(=O)N(COC(=O)C(C)(C)C)C1=O)C2", "PK (rrAUC) parent, µM·h": 13.539}
{"compound_structure": "COc1ccc2c(c1)C(=O)N(C[C@@]1(c3cc4nc(N5C[C@@H](O)CC5=O)ccc4o3)NC(=O)N(COC(=O)C(C)(C)C)C1=O)C2", "PK (rrAUC) parent, µM·h": 60.895}

Next, consider the following molecule.
Prompt: If you can, please state the reported PK (rrAUC) parent value of COc1ccc2c(c1)C(=O)N(C[C@@]1(c3cc4cnccc4o3)NC(=O)N(CCN3CCOCC3)C1=O)C2 .
Completion: 0

====

Catalogue of molecules with associated PK (rrAUC) parent
Assay: Area under the curve determinations of plasma levels in rats (rrAUC)
Format: in vivo
Settings: rapid rat AUC of the drug (parent) in plasma; oral 10 mg/kg, fasted rats, blood 0.5-6 h post-dosing
Numbers only; they are read as µM·h.

Sample records with PK (rrAUC) parent:
{"molecule": "COc1ccc2c(c1)C(=O)N(C[C@@]1(C#Cc3ccc(C(N)=O)cc3)NC(=O)N(COC(=O)C(C)(C)C)C1=O)C2", "test_value": 0}
{"molecule": "COc1ccc2c(c1F)C(=O)N(C[C@@]1(c3cc4nc(N5CCNC(=O)C5)ccc4o3)NC(=O)N(COC(=O)C(C)(C)C)C1=O)C2", "test_value": 0.121}
{"molecule": "COCN1C(=O)N[C@@](CN2Cc3ccc(OC)cc3C2=O)(c2cc3cnccc3o2)C1=O", "test_value": 1.072}
{"molecule": "COc1ccc2c(c1F)C(=O)N(C[C@@]1(C#Cc3ccc(-c4nc(-c5cnn(C)c5)ccc4OC(=O)C(C)(C)C)c(F)c3)NC(=O)N(COC(=O)C(C)(C)C)C1=O)C2", "test_value": 0}
{"molecule": "COc1ccc2c(c1)C(=O)N(C[C@@]1(c3cc4ncccc4o3)NC(=O)N(C(C)C)C1=O)C2", "test_value": 0.37}
{"molecule": "COc1ccc2c(c1)C(=O)N(C[C@@]1(c3cc4cc(-c5cc(=O)[nH]c(N)n5)cnc4o3)NC(=O)N(COC(=O)C(C)(C)C)C1=O)C2", "test_value": 0}

Prompt: If you can, please state the reported PK (rrAUC) parent value of COc1ccc2c(c1)C(=O)N(C[C@]1(c3cc4cnccc4o3)C(=O)N(COC(=O)C3CCCCC3)C(=O)N1C(=O)C1CCCCC1)C2 .
Completion: 0

Prompt: Then COc1ccc2c(c1)C(=O)N(C[C@@]1(c3cc4nc(Nc5cccnc5)ccc4o3)NC(=O)N(COC(=O)C(C)(C)C)C1=O)C2 ?
Completion: 0.094

Prompt: Then COc1ccc2c(c1)C(=O)N(C[C@@]1(c3cc4ncccc4o3)NC(=O)N(C)C1=O)C2 ?
Completion: 0.947

Prompt: Then COc1ccc2c(c1F)C(=O)N(C[C@@]1(c3cc4cc5c(c(F)c4o3)C(=O)NC5)NC(=O)N(C3OC(=O)c4ccccc43)C1=O)C2 (some centres unmarked) ?
Completion: 0.189
